The origin of these recorded values is PubChem BioAssay (NCI).

- Test system: IGROV1 ovarian
- Assay summary: NCI tumour cell line growth inhibition, 48 h

| Molecule | TGI |
| --- | --- |
| O=C1C2CC=CCC2C(=O)N1n1c(Cc2ccccc2)n[nH]c1=O (stereo not given) | > 100 µM |
| O=[N+]([O-])c1ccc(COc2cccc3cccnc23)cc1 | 67.7 µM |
| CC/C(CC(=O)CCC(=O)Nc1ccc(C)c(C)c1)=N\NC(=O)C(N)=O | > 100 µM |
| C[C@]12CC[C@@H]3c4ccc(O)cc4CC[C@H]3[C@@H]1CC[C@@H]2NS(=O)(=O)c1ccc2ccccc2c1 | 17.2 µM |
| CSc1ccc2c(cc1=O)[C@@H](NC(=O)c1ccc([N+](=O)[O-])cc1)CCc1cc(O)c(O)c(O)c1-2 | > 100 µM |
| O=C(Nc1cccc(-n2cc(-c3ccncc3)c(-c3ccc(O)c(Cl)c3)n2)c1)c1ccc(Cl)c(Cl)c1 | > 100 µM |
| CCCCN1C(=O)CS/C1=N/Nc1nc2c([nH]1)c(=O)n(C)c(=O)n2C | > 100 µM |
| NC(N)=NS(=O)(=O)c1ccc(NC(=O)c2ccc3nc4ccccc4c(N)c3c2)cc1 | > 100 µM |
| Clc1ccc(C2=NOC3C4CCC(C4)C23)cc1 (stereo not given) | > 100 µM |
| CNc1nc2c(C)ccc3[nH]c(N(C)C)nc3c-2n1 | > 100 µM |

====

- System: COLO 205 colon
- Assay summary: NCI tumour cell line growth inhibition, 48 h; in the data active = GI50 below about 0.43 µM; inactive = the rest
Outcomes: true (active), false (inactive)

| Compound | Assigned label |
| --- | --- |
| Cc1cc(O)cc(C)c1/C=C/c1cncc(C(=O)OC(C)(C)C)c1 | false |
| CC1(C)N=C(N)N=C(N)N1c1ccc(Cl)c(Cl)c1 | false |
| COc1ccc(Oc2cc(NCCC(F)(F)F)c3ncc(-c4ccc(C(=O)NC5CC5)c(C)c4)n3n2)c(F)c1F | true |
| O=Nc1c(O)c2ccccc2c2ccccc12 | false |

====

The entries below are paired with their reported TGI.
- Tested on: NCI-H522 lung
- Assay summary: NCI tumour cell line growth inhibition, 48 h

| Compound | TGI |
| --- | --- |
| Cc1ccc2c(CC(=O)O)cc(=O)oc2c1 | > 100 µM |
| Cc1ccc(C(=O)N=Nc2c(O)[nH]c3ccc(Cl)cc23)cc1 | > 50 µM |
| CC(=O)OCCOCCN1CCN(c2c(O)c3c(c(O)c2Cl)C(=O)C=CC3=O)CC1 | 0.583 µM |
| Cc1cc2c(=O)cc(-c3ccc(F)cc3)oc2c(C(=O)O)c1C | > 100 µM |
| CCOC(=O)N1N(c2ccccc2)C(=O)C1(c1ccccc1)c1ccccc1 | > 100 µM |
| O=C(Nc1cccc(-n2cc(-c3ccncc3)c(-c3ccc(O)c(Cl)c3)n2)c1)c1ccc(Cl)c(Cl)c1 | 74.4 µM |

====

- Tested on: SK-MEL-5 melanoma
- Assay summary: NCI tumour cell line growth inhibition, 48 h
Listed below: TGI values for each entry.

| Compound | Relation qualifier | TGI (µM) |
| --- | --- | --- |
| COc1ccc(C#CC2=C(c3cc(OC)c(OC)c(OC)c3)C(=O)OC2)cc1 | = | 11.9 |
| COc1cc(NC(C)CCCN)c2ncccc2c1Sc1ccc(Cl)cc1 (stereo not given) | = | 3.09 |
| Nc1[nH]c(=S)c2c(N)n[nH]c2c1C(=O)Nc1ccc(Cl)cc1 | > | 100 |
| CC(C)N(/C(F)=N\C(=O)Nc1ccccc1C(F)(F)F)C(C)C | > | 100 |
| C=CCn1c(-c2ccc(Cl)cc2Cl)csc1=Nc1c(C)n(C)n(-c2ccccc2)c1=O | = | 13.1 |
